Sourced from PubChem BioAssay (NCI)

System: HT29 colon
Test: NCI-60 one-dose screen, 48 h (100 = growth as untreated, 0 = no growth, -100 = all killed)
Conditions: 10 µM unless noted
This is part of a sample that, as a whole, favours compounds with a hit. Of some 83,000 tested, about 20% had one in any assay.
measured attribute: growth (%)
Answer with a number only, understood to be in %.

Example cases with answers are listed next.
{"structure smiles": "O=C(Nc1ccccn1)[C@H](O)[C@@H](O)C(=O)N1CCOCC1", "measured attribute": "growth", "value measured": 104}
{"structure smiles": "N#Cc1cccc(-c2nc3ccccn3c2NCCN2CCOCC2)c1", "measured attribute": "growth", "value measured": 92.8}

Input: Would you kindly share the measured growth for Nc1nc(Nc2ccc(Cl)cc2)nn1S(=O)(=O)c1ccc(-c2ccc(F)cc2)cc1 ?
Output: 80

Input: Would you kindly share the measured growth for CCCc1nc2ccccn2c1Nc1ccc(C(=O)NO)cc1 ?
Output: 92.7

Input: Would you kindly share the measured growth for COc1ccc(-c2cn(-c3cccc(C(=O)/C=C/c4cc(OC)c(OC)c(OC)c4)c3)c(=O)[nH]2)cc1 ?
Output: -67.1

---

System: NCI/ADR-RES ovarian
Test: NCI-60 one-dose screen, 48 h (100 = growth as untreated, 0 = no growth, -100 = all killed)
Settings: 10 µM unless noted
This is part of a sample that, as a whole, favours compounds with a hit. Of some 83,000 tested, about 20% had one in any assay. Activity calls are given as the source filed them. How the source made its calls: active means growth percent below 10; inactive means the rest.
measured attribute: growth

Example cases with answers are listed next.
{"structure smiles": "COc1ccc(-c2cc(-c3ccc(Nc4nc(Nc5ccccc5)nc(Nc5ccc(Cl)cc5)n4)cc3)nc(N)n2)cc1", "value measured": "69.3% (inactive)"}
{"structure smiles": "CCCNCC(=O)Nc1ccc(C(=O)OC(C)(C)CC)cc1", "value measured": "105% (inactive)"}
{"structure smiles": "NC(=O)c1c(NC(=O)c2ccc(C(F)(F)F)cc2Cl)sc2c1CCC(=O)C2", "value measured": "-13.9% (active)"}
{"structure smiles": "O=C1c2ccccc2C(=O)c2cc(Cn3cc[n+](Cc4ccc5ccccc5c4)c3)ccc21", "value measured": "104% (inactive)"}
{"structure smiles": "Cc1ccc(/C=C(\\C#N)n2nnc3cc(Cl)c(Cl)cc32)cc1", "value measured": "-25.5% (active)"}

Input: Recorded growth for COc1ccc(-c2cc(-c3cc(OC)ccc3OC)[nH]c(=O)c2C#N)cc1 with NCI/ADR-RES ovarian, please?
Output: 34.2% (inactive)

Input: Recorded growth for CCOC(=O)Cc1csc2nc(-c3ccccc3)nn12 with NCI/ADR-RES ovarian, please?
Output: 104% (inactive)

Input: Recorded growth for O=C(Nc1ccccn1)[C@H](O)[C@@H](O)C(=O)N1CCOCC1 with NCI/ADR-RES ovarian, please?
Output: 104% (inactive)

Input: Recorded growth for CCOc1ccc2nc(-c3cccc(OCC(=O)NC(C)C)c3)nc(Nc3ccc(-c4cn[nH]c4)cc3)c2c1 with NCI/ADR-RES ovarian, please?
Output: 14.3% (inactive)

Input: Recorded growth for CCCCCCNc1cc(C)nc2ccc(OC)cc12 with NCI/ADR-RES ovarian, please?
Output: 45.1% (inactive)

---

Tested on: NCI/ADR-RES ovarian
Assay: NCI-60 one-dose screen, 48 h
Conditions: 10 µM unless noted
About 83,000 compounds went through this panel and 20% of them were active in at least one assay; those are over-represented in the sample as a whole. Active and inactive are the calls of the source. The calls were made as follows: active = growth percent below 10; inactive = the rest.
# valid calls are active, inactive; nothing else

# count of solved cases: 5
{"molecule": "CCn1c(Sc2nnc(NC(=O)CCN3CCCC3)s2)nc2c1c(=O)n(C)c(=O)n2C", "cat": "inactive"}
{"molecule": "O=C(/C=C/C12c3ccccc3C(c3ccccc31)C1C(=O)N(c3ccc(Cl)cc3)C(=O)C12)c1ccccn1 (stereo not given)", "cat": "active"}
{"molecule": "Nc1c(C(=O)Nc2ccccc2)sc2nc3c(cc12)CCCCCC3", "cat": "active"}
{"molecule": "CSc1nc2sc3cc(Cl)ccc3n2c(=N)c1C#N", "cat": "inactive"}
{"molecule": "O=S(=O)(NCCNc1cc(-c2c(-c3cccc(O)c3)nc3sccn23)ccn1)c1ccc(Cl)cc1", "cat": "inactive"}

Input: Please indicate how the test categorized CC(C)c1ccc(C(=O)OC(=O)c2ccc(C(C)C)cc2)cc1 .
Output: inactive

Input: Please indicate how the test categorized COc1cc2c(cc1OC)-c1ccc3cc4c(cc3c1N(CCCn1ccnc1)C2)OCO4 .
Output: inactive

Input: Please indicate how the test categorized CCCCNC(=O)NS(=O)(=O)c1ccc(N2N=C(c3ccc(C)cc3C)CC2c2ccc(N(C)C)cc2)cc1 (stereo not given) .
Output: inactive

Input: Please indicate how the test categorized CC[C@]1(O)C[C@H]2CN(CCc3c([nH]c4ccccc34)[C@@](C(=O)OC)(c3cc4c(cc3OC)N(C=O)[C@H]3[C@@](O)(C(=O)OC)[C@H](OC(C)=O)[C@]5(CC)C=CCN6CC[C@]43[C@@H]65)C2)C1 .
Output: active

Input: Please indicate how the test categorized CN(C)CCC(O)(Cc1ccccc1)c1ccccc1 (stereo not given) .
Output: inactive

---

Tested on: MDA-MB-231 breast
Assay: NCI-60 one-dose screen, 48 h
Conditions: 10 µM unless noted
About 83,000 compounds went through this panel and 20% of them were active in at least one assay; those are over-represented in the sample as a whole. Active and inactive are the calls of the source. Rule for the calls: active = growth percent below 10; inactive = the rest.
# valid calls are active, inactive; nothing else

Input: Please indicate how the test categorized NC(N)=N/N=C/CO .
Output: inactive

Input: Please indicate how the test categorized CCOC(=O)c1c(C)nc2c(c1N)/C(=C/c1ccc(OC)cc1)C(=O)N2Cc1ccc(F)cc1 .
Output: active

Input: Please indicate how the test categorized Clc1ccc2c(NCCCN3CCN(c4nc(-n5ccnc5)nc5ccccc45)CC3)ccnc2c1 .
Output: active

Input: Please indicate how the test categorized Cc1cccc(-c2cc(O)c(C(=O)N3CCOCC3)s2)c1 .
Output: inactive

Input: Please indicate how the test categorized Cc1c(C(N)=O)sc2nc(C)n(/N=c3\scc(-c4ccccc4)n3Cc3ccccc3)c(=O)c12 .
Output: inactive

Input: Please indicate how the test categorized COc1ccc(-n2sc(=O)n(Cc3ccc(COC(=O)C(C)c4ccc(CC(C)C)cc4)cc3)c2=O)cc1 (stereo not given) .
Output: inactive

Input: Please indicate how the test categorized O=C1NCC(=O)N(Cc2ccco2)[C@H]1Cc1ccccc1 .
Output: inactive

Input: Please indicate how the test categorized N#C/C(=C\c1ccc(Br)cc1)n1nnc2cc(Cl)c(Cl)cc21 .
Output: inactive

Input: Please indicate how the test categorized O=C1CSC(c2ccc(O)cc2)N1c1nnc(Cn2cnnc2)o1 (stereo not given) .
Output: inactive

Input: Please indicate how the test categorized CCOc1ccc(-c2nc3ccc(-c4nc5ccc(N6CCN(C)CC6)cc5[nH]4)cc3[nH]2)cc1OCC .
Output: inactive

Input: Please indicate how the test categorized Nc1nc(Nc2ccc(Cl)cc2)nn1S(=O)(=O)c1ccc(-c2ccc(F)cc2)cc1 .
Output: inactive

Input: Please indicate how the test categorized CNC(=O)c1cc(Oc2ccc3nc(NC(=O)Nc4cc(C(F)(F)F)cc(C(F)(F)F)c4)sc3c2)ccn1 .
Output: active

---

Test system: NCI-H23 lung
Assay: NCI-60 one-dose screen, 48 h (100 = growth as untreated, 0 = no growth, -100 = all killed)
Conditions: 10 µM unless noted
This is part of a sample that, as a whole, favours compounds with a hit. Of some 83,000 tested, about 20% had one in any assay.
measured attribute: growth (%)
Answer with a number only, understood to be in %.

Example cases with answers are listed next.
{"compound": "COC(=O)c1ccc(CSc2nnc(-c3ccncc3)o2)cc1", "target desc": "NCI-H23 lung", "value measured": 105}
{"compound": "Cl.Fc1c[c-]c(-c2ccccn2)c(F)c1.[Pt].c1ccc([PH+](c2ccccc2)c2ccccc2[PH+](c2ccccc2)c2ccccc2)cc1", "target desc": "NCI-H23 lung", "value measured": -84.6}
{"compound": "Cc1ccc(S(=O)(=O)N(CC[C@@H]2C[C@H]2c2cc3ccccc3o2)C(=O)NC2CCCCC2)cc1", "target desc": "NCI-H23 lung", "value measured": 78.2}

Consider the additional compound presented here.
Input: Recorded growth for CN1C(=O)CCC(N2C(=O)c3cccc(NCCOCCOCCNC(=O)c4cc5c(o4)C(=O)c4ccccc4C5=O)c3C2=O)C1=O (centres undefined) with NCI-H23 lung, please?
Output: -52.7

---

Tested on: NCI-H322M lung
Assay: NCI-60 one-dose screen, 48 h (100 = growth as untreated, 0 = no growth, -100 = all killed)
Details: 10 µM unless noted
The panel holds about 83,000 compounds, 20% with a hit somewhere; the sample as a whole holds those more often.
Think of 90% as a floor: if growth stands on it or above, it is Yes; beneath it, No.

{"molecule": "COc1ccc(-c2nc3ncccn3c2/C=C/C(=O)c2cc(OC)c(OC)c(OC)c2)cc1", "cat": "No"}
{"molecule": "COc1ccc(CN2C(=O)/C(=C\\c3cc(OC)c(OC)c(OC)c3)c3ccccc32)cc1", "cat": "No"}
{"molecule": "CN1CCN(C(=O)[C@@]2(C)CC[C@]3(C)CC[C@]4(C)C(=CC[C@@H]5[C@@]6(C)C/C(=C/c7ccncc7)C(=O)C(C)(C)[C@@H]6CC[C@]54C)[C@@H]3C2)CC1", "cat": "No"}
{"molecule": "N#Cc1c(NC(=O)c2ccc(Br)cc2)sc2c1CCCC2", "cat": "No"}
{"molecule": "O=C(NC(=S)Nc1ccc(-c2nc3ccccc3[nH]2)cc1)c1ccc2ccccc2c1", "cat": "No"}

Here is another molecule to look at.
Input: Dear colleague, could you confirm whether CC(C)(C)OC(=O)N1Cc2cc3ccccc3nc2C1CO (stereo unspecified) has growth at or above 90%?
Output: Yes
